All values here come from ChEMBL document CHEMBL5321194.

experiment: Metabolic stability in human liver microsomes assessed as intrinsic clearance
property: CLint (µL/min/mg)

[P] CN(c1ncccc1CNc1ccnc(-c2cc3cc(Cl)ccc3[nH]2)n1)S(C)(=O)=O
[Q] CN(c1ncccc1CNc1ccnc(-c2nc3c(F)c(Cl)ccc3[nH]2)n1)S(C)(=O)=O
Smaller CLint value, P vs Q ? Select an item and report its label.
Q

====

What follows is a collection of EC50 values obtained with SRSF protein kinase 2 (Homo sapiens).
Sequence (P78362 whole entry): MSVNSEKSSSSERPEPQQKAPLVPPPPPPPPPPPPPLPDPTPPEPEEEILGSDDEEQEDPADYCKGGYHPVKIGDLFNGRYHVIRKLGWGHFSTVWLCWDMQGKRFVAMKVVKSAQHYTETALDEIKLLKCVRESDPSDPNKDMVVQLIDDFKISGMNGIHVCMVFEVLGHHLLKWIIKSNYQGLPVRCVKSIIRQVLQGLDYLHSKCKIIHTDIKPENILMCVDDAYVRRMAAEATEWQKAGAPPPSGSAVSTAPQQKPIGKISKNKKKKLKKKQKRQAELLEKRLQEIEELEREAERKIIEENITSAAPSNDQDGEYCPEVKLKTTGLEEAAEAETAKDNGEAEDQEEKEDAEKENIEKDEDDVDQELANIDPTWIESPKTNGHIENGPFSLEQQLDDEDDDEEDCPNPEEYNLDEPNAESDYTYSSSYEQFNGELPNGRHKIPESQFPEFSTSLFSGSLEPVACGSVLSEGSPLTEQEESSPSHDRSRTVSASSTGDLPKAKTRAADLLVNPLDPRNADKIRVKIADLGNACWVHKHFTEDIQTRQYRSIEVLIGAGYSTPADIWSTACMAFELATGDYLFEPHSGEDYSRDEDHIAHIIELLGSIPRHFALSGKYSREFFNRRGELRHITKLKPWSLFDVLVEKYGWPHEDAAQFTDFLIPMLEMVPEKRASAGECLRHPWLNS
property: EC50 (nM)

[P] O=C(Nc1cc(C(F)(F)F)ccc1N1CCCCC1)c1ccncc1
[Q] O=C(Nc1cc(C(F)(F)F)ccc1N1CCN(Cc2ccccn2)CC1)c1ccc(-c2ccncc2)o1
Endpoint returns whichever of P and Q has the numerically higher EC50. Your answer should be the label of the entry you select.
P

====

biological target: Dual specificity protein kinase CLK1 (Homo sapiens, UniProt P49759)
Sequence (P49759 whole entry): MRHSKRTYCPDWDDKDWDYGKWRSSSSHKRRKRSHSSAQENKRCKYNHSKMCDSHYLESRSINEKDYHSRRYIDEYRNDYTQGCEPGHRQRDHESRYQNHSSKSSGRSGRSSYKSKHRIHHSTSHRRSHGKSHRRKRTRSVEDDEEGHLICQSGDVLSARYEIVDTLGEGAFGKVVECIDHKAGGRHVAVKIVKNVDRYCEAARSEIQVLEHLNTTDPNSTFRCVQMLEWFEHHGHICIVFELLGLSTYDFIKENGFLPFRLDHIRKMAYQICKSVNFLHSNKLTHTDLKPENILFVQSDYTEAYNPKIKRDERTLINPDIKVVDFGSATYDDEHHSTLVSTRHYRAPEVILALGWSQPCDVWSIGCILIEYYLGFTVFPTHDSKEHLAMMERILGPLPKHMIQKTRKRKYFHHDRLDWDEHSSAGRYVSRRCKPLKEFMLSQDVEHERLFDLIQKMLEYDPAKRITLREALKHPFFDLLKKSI
property: IC50

Output IC50 of O=C(Nc1cc(C(F)(F)F)ccc1N1CCCCC1)c1ccncc1
> 10 µM

====

The following are reported IC50 results, target or system SRSF protein kinase 3 (Homo sapiens, UniProt Q9UPE1).
property: IC50 (nM)

smilesInput	unitInfo	recordedResult
CCc1cc2c(cc1-c1cccc(S(=O)(=O)F)c1)C(C)(C)c1[nH]c3cc(C#N)ccc3c1C2=O	nM	4.81

[1] O=C(Nc1cc(C(F)(F)F)ccc1N1CCN(Cc2ccccn2)CC1)c1ccc(-c2ccncc2)o1
[2] O=C(Nc1cc(C(F)(F)F)ccc1N1CCCCC1)c1ccncc1
Quick one: lower IC50, 1 or 2 ? // caller expects the label of the chosen entry
2

====

target: UniProt Q96SB4
Sequence (Q96SB4 whole entry): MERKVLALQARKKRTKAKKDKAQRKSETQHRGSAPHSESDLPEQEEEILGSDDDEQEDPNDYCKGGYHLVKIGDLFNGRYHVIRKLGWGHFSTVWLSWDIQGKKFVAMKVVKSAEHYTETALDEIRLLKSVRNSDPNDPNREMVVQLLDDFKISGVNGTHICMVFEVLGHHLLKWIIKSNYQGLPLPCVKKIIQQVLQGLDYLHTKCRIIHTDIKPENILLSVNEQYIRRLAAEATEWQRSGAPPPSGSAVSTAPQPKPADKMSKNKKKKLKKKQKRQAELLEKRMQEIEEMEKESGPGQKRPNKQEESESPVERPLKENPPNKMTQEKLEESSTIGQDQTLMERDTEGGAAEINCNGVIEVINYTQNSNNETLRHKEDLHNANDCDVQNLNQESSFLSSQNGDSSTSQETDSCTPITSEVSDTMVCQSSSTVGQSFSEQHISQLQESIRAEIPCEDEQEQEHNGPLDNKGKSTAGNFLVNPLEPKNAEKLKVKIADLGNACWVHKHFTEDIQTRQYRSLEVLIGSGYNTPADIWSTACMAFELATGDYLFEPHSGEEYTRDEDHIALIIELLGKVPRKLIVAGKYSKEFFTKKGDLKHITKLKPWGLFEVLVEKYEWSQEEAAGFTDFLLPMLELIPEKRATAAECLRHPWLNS
property: IC50 (nM)
Give the quantity in nM, number only.

Provide only the value of recorded IC50 for CCc1cc2c(cc1-c1cccc(S(=O)(=O)F)c1)C(C)(C)c1[nH]c3cc(C#N)ccc3c1C2=O
1.68

====

molecular target: Dual specificity protein kinase CLK4 (Homo sapiens)
Sequence (Q9HAZ1 whole entry): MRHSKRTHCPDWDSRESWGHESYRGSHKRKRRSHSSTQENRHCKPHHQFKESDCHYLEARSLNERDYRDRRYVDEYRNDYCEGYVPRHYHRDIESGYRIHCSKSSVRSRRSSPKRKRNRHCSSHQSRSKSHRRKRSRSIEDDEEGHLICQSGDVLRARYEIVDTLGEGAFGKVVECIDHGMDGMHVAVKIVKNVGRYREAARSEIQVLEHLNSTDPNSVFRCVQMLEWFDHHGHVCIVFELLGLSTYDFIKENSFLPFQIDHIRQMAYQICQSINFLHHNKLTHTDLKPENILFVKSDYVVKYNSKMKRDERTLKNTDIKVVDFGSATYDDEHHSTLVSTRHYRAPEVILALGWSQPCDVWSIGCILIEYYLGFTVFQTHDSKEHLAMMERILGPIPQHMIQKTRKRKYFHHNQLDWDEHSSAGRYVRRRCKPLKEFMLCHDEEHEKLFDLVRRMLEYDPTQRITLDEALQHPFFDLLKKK
property: IC50 (nM)
Return type: number; implicit unit nM.

smilesInput	property	recordedResult
CCc1cc2c(cc1-c1cccc(S(=O)(=O)F)c1)C(C)(C)c1[nH]c3cc(C#N)ccc3c1C2=O	IC50	159

--- query ---
Enter recorded IC50 with Dual specificity protein kinase CLK4 (Homo sapiens) for O=C(Nc1cc(C(F)(F)F)ccc1N1CCN(Cc2ccccn2)CC1)c1ccc(-c2ccncc2)o1 here.
266

====

target: Dual specificity tyrosine-phosphorylation-regulated kinase 1A (Homo sapiens, UniProt Q13627)
Catalogue of pIC50 values
// returns pIC50 (minus log10 of molar concentration), number only

smilesInput	property	recordedResult
CCc1cc2c(cc1-c1cccc(S(=O)(=O)F)c1)C(C)(C)c1[nH]c3cc(C#N)ccc3c1C2=O	pIC50	6.65

# context switch: different molecule, same pIC50
Check the records and state pIC50 for O=C(Nc1cc(C(F)(F)F)ccc1N1CCN(Cc2ccccn2)CC1)c1ccc(-c2ccncc2)o1
5.80

====

assay: Metabolic stability in mouse liver microsomes assessed as intrinsic clearance
property: CLint (µL/min/mg)

[a] CN(c1ncccc1CNc1ccnc(-c2cc3cc(Cl)ccc3[nH]2)n1)S(C)(=O)=O
[b] CN(c1ncccc1CNc1ccnc(-c2nc3c(F)c(Cl)ccc3[nH]2)n1)S(C)(=O)=O
Of a and b , which one carries the higher reported CLint? When you have decided, please share the label of that item.
a
(a: 784 µL/min/mg, b: 196 µL/min/mg)

====

pIC50 values for the molecules below.
Target: Dual specificity tyrosine-phosphorylation-regulated kinase 3 (Homo sapiens)
Sequence (O43781 whole entry): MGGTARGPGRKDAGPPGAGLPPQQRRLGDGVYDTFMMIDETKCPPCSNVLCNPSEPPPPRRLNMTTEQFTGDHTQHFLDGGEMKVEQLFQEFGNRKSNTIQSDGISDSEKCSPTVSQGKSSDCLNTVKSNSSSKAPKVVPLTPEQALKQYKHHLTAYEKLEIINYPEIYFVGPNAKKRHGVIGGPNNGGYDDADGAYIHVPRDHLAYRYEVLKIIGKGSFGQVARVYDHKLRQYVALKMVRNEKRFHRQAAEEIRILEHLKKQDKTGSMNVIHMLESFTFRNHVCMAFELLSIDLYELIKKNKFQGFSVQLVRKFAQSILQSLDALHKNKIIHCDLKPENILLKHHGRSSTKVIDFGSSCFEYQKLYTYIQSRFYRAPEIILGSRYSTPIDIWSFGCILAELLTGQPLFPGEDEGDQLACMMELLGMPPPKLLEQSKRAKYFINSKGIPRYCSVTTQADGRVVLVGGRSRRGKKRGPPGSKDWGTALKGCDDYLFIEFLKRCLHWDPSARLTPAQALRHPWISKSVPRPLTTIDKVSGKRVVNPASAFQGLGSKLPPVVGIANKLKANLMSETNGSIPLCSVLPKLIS
pIC50: −log10 of the molar value.

Answered cases to consult:
smilesInput	pIC50
CN(c1ncccc1CNc1ccnc(-c2nc3c(F)c(Cl)ccc3[nH]2)n1)S(C)(=O)=O	< 5.00
O=C(Nc1cc(C(F)(F)F)ccc1N1CCCCC1)c1ccncc1	< 5.00
O=C(Nc1cc(C(F)(F)F)ccc1N1CCN(Cc2ccccn2)CC1)c1ccc(-c2ccncc2)o1	< 5.00

Moving on to another molecule below.
Consider the molecule CCc1cc2c(cc1-c1cccc(S(=O)(=O)F)c1)C(C)(C)c1[nH]c3cc(C#N)ccc3c1C2=O . State its measured pIC50.
5.17

====

assay: Apparent permeability in human Caco-2 cells
property: Papp (×10⁻⁶ cm/s)

[1] CN(c1ncccc1CNc1ccnc(-c2cc3cc(Cl)ccc3[nH]2)n1)S(C)(=O)=O
[2] CN(c1ncccc1CNc1ccnc(-c2nc3c(F)c(Cl)ccc3[nH]2)n1)S(C)(=O)=O
Between 1 and 2 , which one shows the larger Papp value? Indicate your choice by writing its label.
2

====

Values of IC50 reported for UniProt:Q9Y463 appear below.
Sequence (Q9Y463 whole entry): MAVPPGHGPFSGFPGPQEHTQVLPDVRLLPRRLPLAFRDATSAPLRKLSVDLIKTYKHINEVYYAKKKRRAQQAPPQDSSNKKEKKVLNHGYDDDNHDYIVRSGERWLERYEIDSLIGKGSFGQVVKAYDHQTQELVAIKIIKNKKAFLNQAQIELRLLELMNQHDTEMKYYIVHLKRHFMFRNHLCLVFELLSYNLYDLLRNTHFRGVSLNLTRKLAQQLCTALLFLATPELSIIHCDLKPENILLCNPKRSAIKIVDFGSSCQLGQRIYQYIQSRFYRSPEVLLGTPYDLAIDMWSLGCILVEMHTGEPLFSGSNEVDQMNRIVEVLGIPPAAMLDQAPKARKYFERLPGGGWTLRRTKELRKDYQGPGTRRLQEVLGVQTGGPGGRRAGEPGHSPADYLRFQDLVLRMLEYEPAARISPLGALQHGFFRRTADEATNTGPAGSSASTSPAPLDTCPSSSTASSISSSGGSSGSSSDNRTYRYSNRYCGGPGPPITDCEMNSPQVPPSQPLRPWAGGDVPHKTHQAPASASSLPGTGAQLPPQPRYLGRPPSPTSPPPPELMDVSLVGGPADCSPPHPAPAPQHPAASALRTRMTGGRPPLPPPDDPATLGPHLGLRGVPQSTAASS
Provide the reading as a plain figure in µM.

smilesInput	IC50 / µM
O=C(Nc1cc(C(F)(F)F)ccc1N1CCN(Cc2ccccn2)CC1)c1ccc(-c2ccncc2)o1	1.84

Next, consider the following compound.
Indicate its recorded IC50; the compound in question is CCc1cc2c(cc1-c1cccc(S(=O)(=O)F)c1)C(C)(C)c1[nH]c3cc(C#N)ccc3c1C2=O
0.293

====

test: Clearance in mouse hepatocytes measured per million of cells
property: hepatocyte CLint (µL/min/1e6 cells)

[1] CN(c1ncccc1CNc1ccnc(-c2cc3cc(Cl)ccc3[nH]2)n1)S(C)(=O)=O
[2] CN(c1ncccc1CNc1ccnc(-c2nc3c(F)c(Cl)ccc3[nH]2)n1)S(C)(=O)=O
For the pair 1 and 2 , which member has the lower hepatocyte CLint number? Write down the label attached to your selection.
2
(2: 354 µL/min/1e6 cells, 1: 1100 µL/min/1e6 cells)

====

experiment: Clearance in human hepatocytes measured per million of cells
property: hepatocyte CLint (µL/min/1e6 cells)

[A] CN(c1ncccc1CNc1ccnc(-c2nc3c(F)c(Cl)ccc3[nH]2)n1)S(C)(=O)=O
[B] CN(c1ncccc1CNc1ccnc(-c2cc3cc(Cl)ccc3[nH]2)n1)S(C)(=O)=O
Which record shows the lower hepatocyte CLint: the first, A , or the second, B ? Select an item and report its label.
A

====

// each record: one item and its IC50 for SRSF protein kinase 2 (Homo sapiens, UniProt P78362)
property: IC50 (µM)

smilesInput	testedSystem	unitInfo	IC50
CCc1cc2c(cc1-c1cccc(S(=O)(=O)F)c1)C(C)(C)c1[nH]c3cc(C#N)ccc3c1C2=O	SRSF protein kinase 2 (Homo sapiens, UniProt P78362)	µM	0.00254

[A] O=C(Nc1cc(C(F)(F)F)ccc1N1CCN(Cc2ccccn2)CC1)c1ccc(-c2ccncc2)o1
[B] O=C(Nc1cc(C(F)(F)F)ccc1N1CCCCC1)c1ccncc1
Could you please tell me which of these two has the higher IC50: A or B ? # answer = label of selected item
B
(B: 1.51 µM, A: 0.256 µM)

====

Measured solubility thermodynamic, listed per entry for reference.
assay: Thermodynamic solubility of the compound in phosphate buffer at pH 7.4

smilesInput	property	recordedResult
CN(c1ncccc1CNc1ccnc(-c2cc3cc(Cl)ccc3[nH]2)n1)S(C)(=O)=O	solubility thermodynamic	< 1 µg/mL

Here is the next item to consider.
Given the molecule CN(c1ncccc1CNc1ccnc(-c2nc3c(F)c(Cl)ccc3[nH]2)n1)S(C)(=O)=O , write its reported solubility thermodynamic.
< 1 µg/mL

====

In what follows, each item is paired with its IC50 for Dual specificity tyrosine-phosphorylation-regulated kinase 2 (Homo sapiens).

smilesInput	IC50
O=C(Nc1cc(C(F)(F)F)ccc1N1CCCCC1)c1ccncc1	> 10 µM
O=C(Nc1cc(C(F)(F)F)ccc1N1CCN(Cc2ccccn2)CC1)c1ccc(-c2ccncc2)o1	> 10 µM
CN(c1ncccc1CNc1ccnc(-c2nc3c(F)c(Cl)ccc3[nH]2)n1)S(C)(=O)=O	> 10 µM

Turning now to a further compound:
Recall the reported IC50 of CCc1cc2c(cc1-c1cccc(S(=O)(=O)F)c1)C(C)(C)c1[nH]c3cc(C#N)ccc3c1C2=O when tested on Dual specificity tyrosine-phosphorylation-regulated kinase 2 (Homo sapiens).
Sequence (Q92630 whole entry): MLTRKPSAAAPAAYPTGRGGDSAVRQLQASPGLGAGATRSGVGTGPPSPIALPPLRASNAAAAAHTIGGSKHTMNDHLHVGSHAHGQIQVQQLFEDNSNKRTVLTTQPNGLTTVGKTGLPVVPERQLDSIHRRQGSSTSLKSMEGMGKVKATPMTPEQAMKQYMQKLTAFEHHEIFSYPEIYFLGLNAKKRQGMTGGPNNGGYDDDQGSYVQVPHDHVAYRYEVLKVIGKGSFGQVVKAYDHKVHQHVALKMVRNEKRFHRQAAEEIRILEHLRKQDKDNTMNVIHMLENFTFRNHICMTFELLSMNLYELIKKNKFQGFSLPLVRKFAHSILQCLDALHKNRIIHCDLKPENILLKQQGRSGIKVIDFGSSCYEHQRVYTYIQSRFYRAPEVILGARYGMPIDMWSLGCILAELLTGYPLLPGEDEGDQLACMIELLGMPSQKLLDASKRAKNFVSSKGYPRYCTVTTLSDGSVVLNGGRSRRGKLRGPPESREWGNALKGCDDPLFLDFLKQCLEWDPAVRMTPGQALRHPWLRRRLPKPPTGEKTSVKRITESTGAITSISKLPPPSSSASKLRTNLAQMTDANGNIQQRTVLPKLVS
5.72 µM
